# Lookup of reported pIC50 keyed by entry
# Test system: CEM/VM-1-5 cells (MDR+)
# TEST_DETAILS: cells
# Format: cell-based, human
# RECORDED_CONDITIONS: Homo sapiens, read-out: IC50 CEM/VM-1-5 (MDR + HTL), CEM/VM-1-5, MTT
Field pIC50 (float): negative decimal logarithm of the concentration in molar.

COMPOUND	pIC50
CC[C@]1(O)C[C@@H]2CN(CCc3c([nH]c4ccccc34)[C@@](C(=O)OC)(c3cc4c(cc3OC)N(C)[C@H]3[C@@](O)(C(=O)OC)[C@H](OC(C)=O)[C@]5(CC)C=CCN6CC[C@]43[C@@H]65)C2)C1 [Vinblastine, vinblastine, reference compound]	8.89
CCCCCCCCCCCCCCCC1OCC(COC(=O)O[C@@H]2C(=O)C=C(C)[C@@H]3C[C@H]4OC(=O)C(OC(=O)CC(O)(C(C)C)C(C)C)C5[C@@H](C)[C@@H](O)[C@@]6(O)OC[C@@]54C6[C@@]23C)O1 (stereo partly drawn)	8.10

**Query** What measured pIC50 goes with COC(=O)[C@@]12OC[C@]34[C@H]([C@@H](O)[C@@H]1O)[C@@]1(C)CC(=O)C(O)=C(C)[C@@H]1C[C@H]3OC(=O)C(OC(=O)CC1(O)CCCCC1)[C@@H]24 (stereo partly drawn) ?
**Result** 6.51

###

# System: CEM/VM-1-5 cells (MDR+)
# TEST_DETAILS: cells
# Format: cell-based, human
# RECORDED_CONDITIONS: Homo sapiens, read-out: IC50 CEM/VM-1-5 (MDR + HTL), CEM/VM-1-5, MTT
# From the text: A second evaluation of the cytotoxicity of the acid labile, lipophilic molecular conjugates was undertaken. […] The second set of cells tested, CCRF-CEM or simply CEM, were derived from the blood of a patient with acute lymphoblastic leukemia. G. E. Foley, H. Lazarus, S. Farber, B. G. Uzman, B. A. Boone, and R E. McCarthy. Continuous culture of human lymphoblasts from peripheral blood of a child with acute leukemia. Cancer 18: 522-529 (1965). […]
MEASURE_NAME: IC50 (nM)
Quick note: give the figure in nM, leave out the unit.

**Query** Recorded IC50 for CCCCCCCCCCCCCCCC1OCC(COC(=O)OC2=C(C)[C@@H]3C[C@H]4OC(=O)C(OC(=O)CC5(O)CCCCC5)[C@H]5[C@]6(C(=O)OC)OC[C@]45[C@H]([C@@H](O)[C@@H]6O)[C@@]3(C)CC2=O)O1 (some centres unmarked) with CEM/VM-1-5 cells (MDR+), please?
**Result** 24

###

# Lookup of reported pIC50 keyed by entry
# Tested on: MES-SA/Dx5 doxorubicin-resistant subline (MDR+)
# TEST_DETAILS: cells
# Format: cell-based, human
# RECORDED_CONDITIONS: Homo sapiens, MES-SA/Dx5, read-out: IC50 MESSA/Dx5 (MDR + Hs)
Field pIC50 (float): negative decimal logarithm of the concentration in molar.

**Query** What measured pIC50 goes with CCCCCCCCCCCCCCCC1OCC(COC(=O)OC2=C(C)[C@@H]3C[C@H]4OC(=O)C(OC(=O)CC5(O)CCCCC5)[C@H]5[C@]6(C(=O)OC)OC[C@]45[C@H]([C@@H](O)[C@@H]6O)[C@@]3(C)CC2=O)O1 (stereo partly shown) ?
**Result** 7.77

**Query** Also check CC[C@]1(O)C[C@@H]2CN(CCc3c([nH]c4ccccc34)[C@@](C(=O)OC)(c3cc4c(cc3OC)N(C)[C@H]3[C@@](O)(C(=O)OC)[C@H](OC(C)=O)[C@]5(CC)C=CCN6CC[C@]43[C@@H]65)C2)C1 [Vinblastine, vinblastine, reference compound]
**Result** 7.37

**Query** Also check COC(=O)[C@@]12OC[C@]34[C@H]([C@@H](O)[C@@H]1O)[C@@]1(C)CC(=O)C(O)=C(C)[C@@H]1C[C@H]3OC(=O)C(OC(=O)CC1(O)CCCCC1)[C@@H]24 (stereo partly shown)
**Result** 6.42

**Query** Also check CCCCCCCCCCCCCCCC1OCC(COC(=O)O[C@@H]2C(=O)C=C(C)[C@@H]3C[C@H]4OC(=O)C(OC(=O)CC(O)(C(C)C)C(C)C)C5[C@@H](C)[C@@H](O)[C@@]6(O)OC[C@@]54C6[C@@]23C)O1 (stereo partly shown)
**Result** 8.15
